Hello, the source for this data is ChEMBL document CHEMBL4819020, in case you need it.

Test system: GES1
Assay: Antiproliferative activity against human GES1 cells assessed as inhibition of cell proliferation measured after 72 hrs by MTT assay
Assay type: cell-based
Settings: GES1, 72 h
Observable: IC50 (µM)
Give the quantity in µM, number only.

Example compounds with recorded IC50:
Cpd smiles | Observable | Observed measurement
Cc1cc(Nc2cc(-c3cccs3)[nH]n2)n2nc(SCc3ccc(Br)cc3)nc2n1 | IC50 | 38.7
Cc1cc(Nc2ccn(Cc3ccc(C(F)(F)F)cc3)n2)n2nc(SCc3ccc(Br)cc3)nc2n1 | IC50 | 30.2
Cc1cc(Nc2cc(-c3ccc(Cl)cc3)[nH]n2)n2nc(SCc3ccc(Br)cc3)nc2n1 | IC50 | 28.2
Cc1cc(Nc2cc(-c3ccccc3)[nH]n2)n2nc(SCC(=O)c3ccccc3)nc2n1 | IC50 | 33.3
Cc1cc(Nc2cc(-c3ccccc3)[nH]n2)n2nc(SCCc3ccccc3)nc2n1 | IC50 | 37.4

Would you kindly share the measured IC50 for Cc1cc(Nc2cc(-c3ccccc3)[nH]n2)n2nc(SCc3ccc([N+](=O)[O-])cc3)nc2n1 ?
43.6

Would you kindly share the measured IC50 for Cc1cc(Nc2cc(-c3ccccc3)[nH]n2)n2nc(SCCCc3ccccc3)nc2n1 ?
40.2

Would you kindly share the measured IC50 for Cc1cc(Nc2ccn(Cc3ccccc3)n2)n2nc(SCc3ccc(Br)cc3)nc2n1 ?
44.4

Would you kindly share the measured IC50 for Cc1cc(Nc2cc(-c3ccccc3)[nH]n2)n2nc(SCc3ccccc3Br)nc2n1 ?
41.1

Would you kindly share the measured IC50 for C#CCSc1nc2nc(C)cc(Nc3cc(-c4ccccc4)[nH]n3)n2n1 ?
45.7

Would you kindly share the measured IC50 for Cc1cc(Nc2cc(-c3ccccc3)[nH]n2)n2nc(SCc3ccc(F)cc3)nc2n1 ?
35.5

Would you kindly share the measured IC50 for Cc1cc(Nc2cc(-c3ccccc3)[nH]n2)n2nc(SCc3cccc4ccccc34)nc2n1 ?
36.3

Would you kindly share the measured IC50 for Cc1cc(Nc2cc(-c3ccccc3)[nH]n2)n2nc(SCc3ccc(Cl)cc3)nc2n1 ?
31.8

Would you kindly share the measured IC50 for Cc1cc(Nc2cc(-c3ccccc3)[nH]n2)n2nc(SCc3ccc(C(F)(F)F)cc3)nc2n1 ?
42.7

Would you kindly share the measured IC50 for Cc1cc(Nc2ccn(Cc3csc4ccc(Cl)cc34)n2)n2nc(SCc3ccc(Br)cc3)nc2n1 ?
31.4

Would you kindly share the measured IC50 for Cc1cc(Nc2ccn(Cc3ccc(F)cc3)n2)n2nc(SCc3ccc(Br)cc3)nc2n1 ?
40.5

Would you kindly share the measured IC50 for Cc1cc(Nc2cc(-c3ccc(F)cc3)[nH]n2)n2nc(SCc3ccc(Br)cc3)nc2n1 ?
34.1

Would you kindly share the measured IC50 for COc1ccc(CSc2nc3nc(C)cc(Nc4cc(-c5ccccc5)[nH]n4)n3n2)cc1 ?
28.2

Would you kindly share the measured IC50 for Cc1cc(Nc2cc(-c3ccccc3)[nH]n2)n2nc(SCc3c(Cl)cccc3Cl)nc2n1 ?
39.6

---

Test system: MCF7
Test: Antiproliferative activity against human MCF7 cells assessed as inhibition of cell proliferation measured after 72 hrs by MTT assay
Assay type: functional, cell-based
Conditions: MCF7, 72 h
Here the recorded IC50 is given for each entry.

Would you kindly share the measured IC50 for Cc1cc(Nc2cc(-c3ccccc3)[nH]n2)n2nc(SCC3CCCCC3)nc2n1 ?
> 50 µM

Would you kindly share the measured IC50 for Cc1cc(Nc2cc(-c3ccccc3)[nH]n2)n2ncnc2n1 ?
> 50 µM

Would you kindly share the measured IC50 for C=CCSc1nc2nc(C)cc(Nc3cc(-c4ccccc4)[nH]n3)n2n1 ?
> 50 µM
